assayTarget: Glutathione-S-transferase-labeled FXR human protein (Homo sapiens)
Sequence (Q96RI1 whole entry): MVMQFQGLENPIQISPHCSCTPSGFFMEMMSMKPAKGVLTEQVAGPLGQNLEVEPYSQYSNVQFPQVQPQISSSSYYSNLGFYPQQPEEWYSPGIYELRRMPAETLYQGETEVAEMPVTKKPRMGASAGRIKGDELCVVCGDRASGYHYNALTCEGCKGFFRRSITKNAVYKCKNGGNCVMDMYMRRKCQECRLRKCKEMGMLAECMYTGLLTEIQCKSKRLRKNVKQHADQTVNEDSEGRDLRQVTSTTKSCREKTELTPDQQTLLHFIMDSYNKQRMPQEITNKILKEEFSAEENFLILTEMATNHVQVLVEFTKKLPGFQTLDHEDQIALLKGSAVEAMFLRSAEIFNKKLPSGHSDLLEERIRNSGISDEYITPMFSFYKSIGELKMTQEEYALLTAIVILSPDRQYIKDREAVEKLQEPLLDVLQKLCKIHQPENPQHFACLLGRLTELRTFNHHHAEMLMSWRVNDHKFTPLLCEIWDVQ
assaySummary: FXR biochemical experiment (AlphaScreen, coactivator recruitment)
testSettings: AlphaScreen, GST-FXR human protein + biotin-labeled steroid receptor coactivator; read-out: FXR enzyme activity EC50
pEC50: −log10 of the molar value.
Class MET: pEC50 at least 7. Class NOT MET: pEC50 below 7.

compound: CC[C@H]1[C@@H](O)[C@@H]2[C@H](CC[C@]3(C)[C@@H]([C@H](C)CCOc4ccc(C(=O)NS(=O)(=O)C(C)C)cn4)CC[C@@H]23)[C@@]2(C)CC[C@@H](O)C[C@@H]12
assayTarget: Glutathione-S-transferase-labeled FXR human protein (Homo sapiens)
cat: MET
//
compound: CC[C@H]1[C@@H](O)[C@@H]2[C@H](CC[C@]3(C)[C@@H]([C@H](C)CCOc4ccc(C(=O)O)nc4)CC[C@@H]23)[C@@]2(C)CC[C@@H](O)C[C@@H]12
assayTarget: Glutathione-S-transferase-labeled FXR human protein (Homo sapiens)
cat: MET
//
compound: CC[C@H]1[C@@H](O)[C@@H]2[C@H](CC[C@]3(C)[C@@H]([C@H](C)CCOc4cncc(C(=O)O)c4)CC[C@@H]23)[C@@]2(C)CC[C@@H](O)C[C@@H]12
assayTarget: Glutathione-S-transferase-labeled FXR human protein (Homo sapiens)
cat: MET
//
compound: CC[C@H]1[C@@H](O)[C@@H]2[C@H](CC[C@]3(C)[C@@H]([C@H](C)CCn4ccc(C(=O)O)cc4=O)CC[C@@H]23)[C@@]2(C)CC[C@@H](O)C[C@@H]12
assayTarget: Glutathione-S-transferase-labeled FXR human protein (Homo sapiens)
cat: NOT MET
//
compound: CC[C@H]1[C@@H](O)[C@@H]2[C@H](CC[C@]3(C)[C@@H]([C@H](C)CCOc4ccc(C(=O)NS(=O)(=O)C(C)(C)C)cn4)CC[C@@H]23)[C@@]2(C)CC[C@@H](O)C[C@@H]12
assayTarget: Glutathione-S-transferase-labeled FXR human protein (Homo sapiens)
cat: MET
//
compound: CC[C@H]1[C@@H](O)[C@@H]2[C@H](CC[C@]3(C)[C@@H]([C@H](C)CCOc4ccc(C(=O)NS(C)(=O)=O)cn4)CC[C@@H]23)[C@@]2(C)CC[C@@H](O)C[C@@H]12
assayTarget: Glutathione-S-transferase-labeled FXR human protein (Homo sapiens)
cat: MET
//
compound: CC[C@@H]1C2C[C@H](O)CC[C@]2(C)[C@H]2CC[C@]3(C)[C@@H]([C@H](C)CCn4cc(C(=O)O)cn4)CC[C@H]3[C@@H]2[C@@H]1O (stereo partly drawn)
assayTarget: Glutathione-S-transferase-labeled FXR human protein (Homo sapiens)
cat: NOT MET

Sourced from patent US11667667B2
